These measurements were taken from patent US7265129B2.

- System: B. cereus ATCC 11778
- assay comment: MIC, NCCLS broth microdilution, B. cereus
- Assay type: cell-based, Bacillus cereus
readout: Minimum Inhibitory Concentration (MIC), organism A

Example results:
[[record]]
smiles_representation = "Cn1cc(NC(=O)c2cc3ccccc3cn2)cc1C(=O)Nc1cc(-c2nc3ccncc3[nH]2)n(C)c1"
recorded_value = "+++ (MIC ≦ 4 μg/mL)"

[[record]]
smiles_representation = "Cn1cc(NC(=O)c2cc3ccccc3cn2)cc1C(=O)Nc1cc(-c2nc3cc(O)ccc3[nH]2)n(C)c1"
recorded_value = "+++ (MIC ≦ 4 μg/mL)"

[[record]]
smiles_representation = "Cn1cc(NC(=O)c2cc(NC(=O)c3sc4ccccc4c3Cl)cn2CCCN2CCOCC2)cc1-c1nc2ccccc2[nH]1"
recorded_value = "+++ (MIC ≦ 4 μg/mL)"

[[record]]
smiles_representation = "CN(C)CCCn1cc(NC(=O)c2ccc(F)cc2F)cc1C(=O)Nc1cc(-c2nc3ncccc3[nH]2)n(C)c1"
recorded_value = "+++ (MIC ≦ 4 μg/mL)"

[[record]]
smiles_representation = "CN(C)CCCn1cc(NC(=O)c2ccc(Cl)cc2F)cc1C(=O)Nc1cc(-c2nc3ccncc3[nH]2)n(C)c1"
recorded_value = "+++ (MIC ≦ 4 μg/mL)"

[[record]]
smiles_representation = "Cn1cc(NC(=O)c2cc(NC(=O)c3sccc3Cl)cn2CCC[n+]2ccccc2)cc1-c1nc2ncccc2[nH]1"
recorded_value = ">32 mg/L"


Answer with the recorded Minimum Inhibitory Concentration (MIC), organism A of Cc1cccc2nc(-c3cc(NC(=O)c4cc(NC(=O)c5cc6ccccc6cn5)cn4C)cn3C)[nH]c12 only.
>32 mg/L

Read the entry CC1CCN(CCCn2cc(NC(=O)c3sccc3Cl)cc2C(=O)Nc2cc(-c3nc4ccccc4[nH]3)n(C)c2)CC1 and write its reported Minimum Inhibitory Concentration (MIC), organism A.
+++ (MIC ≦ 4 μg/mL)

* * *

- System: S. aureus ATCC 13709
- assay comment: MIC, NCCLS broth microdilution, S. aureus MSSA
- Assay type: cell-based, Staphylococcus aureus
- condition details: S. aureus ATCC 13709, methicillin sensitive strain (MSSA)
readout: Minimum Inhibitory Concentration (MIC), organism D

[[record]]
smiles_representation = "Cn1cc(NC(=O)c2cc(NC(=O)c3sc4ccccc4c3Cl)cn2CCC[n+]2ccccc2)cc1-c1nc2ccccc2[nH]1"
recorded_value = "++ (4 < MIC < 12 μg/mL)"

[[record]]
smiles_representation = "Cn1cc(NC(=O)c2cc(NC(=O)c3sccc3Cl)cn2CCCN2CCSCC2)cc1-c1nc2ccccc2[nH]1"
recorded_value = "+++ (MIC ≦ 4 μg/mL)"

[[record]]
smiles_representation = "CN(C)CCCn1cc(NC(=O)c2sc3ccccc3c2Cl)cc1C(=O)Nc1cc(-c2nc3ccncc3[nH]2)n(C)c1"
recorded_value = "+++ (MIC ≦ 4 μg/mL)"

[[record]]
smiles_representation = "Cn1cc(NC(=O)c2cc3ccccc3cn2)cc1C(=O)Nc1cc(-c2nc3ccc(OC(=O)CCN4CCOCC4)cc3[nH]2)n(C)c1"
recorded_value = "+++ (MIC ≦ 4 μg/mL)"

[[record]]
smiles_representation = "Cn1cc(NC(=O)c2cc(NC(=O)c3sccc3Cl)cn2CCCN2CCC(O)CC2)cc1-c1nc2ccccc2[nH]1"
recorded_value = "+++ (MIC ≦ 4 μg/mL)"


Return value of Minimum Inhibitory Concentration (MIC), organism D for input CC1CCN(CCCn2cc(NC(=O)c3sccc3Cl)cc2C(=O)Nc2cc(-c3nc4ccccc4[nH]3)n(C)c2)CC1 , no commentary.
+++ (MIC ≦ 4 μg/mL)

Hello, please tell me recorded Minimum Inhibitory Concentration (MIC), organism D for this one: Cn1cc(NC(=O)c2cc3ccccc3cn2)cc1C(=O)Nc1cc(-c2nc3ccc(Cl)cc3[nH]2)n(C)c1
+++ (MIC ≦ 4 μg/mL)

In one line, give reported Minimum Inhibitory Concentration (MIC), organism D of the entry Cn1cc(NC(=O)c2cc(NC(=O)c3ccc(Cl)cc3F)cn2CCCN2CCC(O)CC2)cc1-c1nc2cccnc2[nH]1 .
+++ (MIC ≦ 4 μg/mL)

For the molecule Cn1cc(NC(=O)c2cc(NC(=O)c3ccc(Cl)cc3F)cn2CCCN(CCO)CCO)cc1-c1nc2cccnc2[nH]1 , give its measured Minimum Inhibitory Concentration (MIC), organism D value.
++ (4 < MIC < 12 μg/mL)

Please give measured Minimum Inhibitory Concentration (MIC), organism D of the following entry: Cn1cc(NC(=O)c2cc(NC(=O)c3ccc(Cl)cc3F)cn2CCCN2CCOCC2)cc1-c1nc2ccccc2[nH]1
+++ (MIC ≦ 4 μg/mL)

Complete the entry with Minimum Inhibitory Concentration (MIC), organism D for CN(C)CCCn1cc(NC(=O)c2ccc(F)cc2F)cc1C(=O)Nc1cc(-c2nc3ncccc3[nH]2)n(C)c1
+++ (MIC ≦ 4 μg/mL)

Please give the documented Minimum Inhibitory Concentration (MIC), organism D of Cc1cccc2nc(-c3cc(NC(=O)c4cc(NC(=O)c5cc6ccccc6cn5)cn4C)cn3C)[nH]c12
>32 µg/mL

Identify measured Minimum Inhibitory Concentration (MIC), organism D corresponding to CC1CCN(CCCn2cc(NC(=O)c3ccc(Cl)cc3F)cc2C(=O)Nc2cc(-c3nc4ccccc4[nH]3)n(C)c2)CC1
+++ (MIC ≦ 4 μg/mL)

Quickly give me recorded Minimum Inhibitory Concentration (MIC), organism D for CN(C)CCCn1cc(NC(=O)c2ccc(Cl)cc2F)cc1C(=O)Nc1cc(-c2nc3ccncc3[nH]2)n(C)c1
+++ (MIC ≦ 4 μg/mL)

* * *

- System: B. cereus ATCC 11778
- assay comment: MIC, NCCLS broth microdilution, B. cereus
- Type: cell-based, Bacillus cereus
readout: Minimum Inhibitory Concentration (MIC), organism A

Reference set, count: 5
[[record]]
smiles_representation = "Cn1cc(NC(=O)c2cc3ccccc3cn2)cc1C(=O)Nc1cc(-c2nc3ccc(NC(=O)CCN4CCOCC4)cc3[nH]2)n(C)c1"
recorded_value = "+++ (MIC ≦ 4 μg/mL)"

[[record]]
smiles_representation = "CC1CCN(CCCn2cc(NC(=O)c3ccc(Cl)cc3F)cc2C(=O)Nc2cc(-c3nc4cccnc4[nH]3)n(C)c2)CC1"
recorded_value = "+++ (MIC ≦ 4 μg/mL)"

[[record]]
smiles_representation = "Cn1cc(NC(=O)c2cc(NC(=O)c3ccc(Cl)cc3F)cn2CCCN2CCC(O)CC2)cc1-c1nc2cccnc2[nH]1"
recorded_value = "+++ (MIC ≦ 4 μg/mL)"

[[record]]
smiles_representation = "Cn1cc(NC(=O)c2cc(NC(=O)c3ccc(Cl)cc3F)cn2CCCN2CCCCC2)cc1-c1nc2ccccc2[nH]1"
recorded_value = "+++ (MIC ≦ 4 μg/mL)"

[[record]]
smiles_representation = "CN(C)CCCn1cc(NC(=O)c2cc3ccccc3cn2)cc1C(=O)Nc1cc(-c2nc3ncccc3[nH]2)n(C)c1"
recorded_value = "+++ (MIC ≦ 4 μg/mL)"


Consider now this further compound.
Return Minimum Inhibitory Concentration (MIC), organism A (reported value) for this compound: Cn1cc(NC(=O)c2cc(NC(=O)c3sccc3Cl)cn2CCC[n+]2ccccc2)cc1-c1nc2ccccc2[nH]1
>32 µg/mL
